assayedTarget: 2CC-core
methodDescription: SPR, antigen on chip, IgG injected
Think of 0.0003 s⁻¹ as a floor: if koff stands on it or above, it is yes (1); beneath it, no (0).

Worked examples follow.
# binder, className
records = [
    ("1NC9 (antibody, V domains shown, also called LSSNEC9HC; LSSNEC9LC) VH: QVRLVQSGAQLKKPGASVTVSCEASGYNFVNYIINWVRQTPGRSFEWVGMIDPRRGRPWSAQKFQGRLTLTRDIDSEKLYMHLSGLRGDDTAVYYCARQDSDFHDGHGHTLRGMFDSWGQGSPVTVSS VL: QVLSVSGTPGQRVIISCSGTSSNVGGNLVSWYQHLPGAAPRLLIHRDDQRPSGVPDRFSGSKSGNSASLVISGLRSDDEADYFCAAYDSTFSLPVFGGGTRLTVLS", "no (0)"),
    ("1B2530 (antibody, V domains shown, also called LSSB2530HC; LSSB2530LC) VH: QVRLEQSGAAMRKPGASVTLSCQASGYNFVKYIIHWVRQKPGLGFEWVGMIDPYRGRPWSAHKFQGRLSLSRDTSMEILYMTLTSLKSDDTATYFCARAEAASDSHSRPIMFDHWGQGSRVTVSS VL: QSALTQPPSASGAPGQRVTISCSGGPSNVGGNYVYWYRQFPGTAPTLLILRDDQRPSGVPDRFSASKSGNSASLAISGLRPDDEGFYFCATYDSDGSIRLFGGGTALTVLS", "yes (1)"),
    ("8ANC195 (antibody, V domains shown, also called 8ANC195HC; 8ANC195KC) VH: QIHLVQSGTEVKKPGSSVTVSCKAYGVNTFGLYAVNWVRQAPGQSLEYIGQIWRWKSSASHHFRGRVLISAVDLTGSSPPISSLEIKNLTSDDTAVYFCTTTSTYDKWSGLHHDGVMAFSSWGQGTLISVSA VL: DIQMTQSPSTLAASIGGTVRVSCRASQSITGNWVAWYQQRPGKAPRLLIYRGAALLGGVPSRFSGSAAGTDFTLTIGNLQAEDFGTFYCQQYDTYPGTFGQGTKVEVKR", "yes (1)"),
]

Prompt: I'd appreciate it if you could say whether 8ANC131 (antibody, V domains shown, also called 8ANC131HC; 8ANC131KC) VH: QGQLVQSGGGLKKPGTSVTISCLASEYTFNEFVIHWIRQAPGQGPLWLGLIKRSGRLMTAYNFQDRLRLRRDRSTGTVFMELRGLRPDDTAVYYCARDGLGEVAPDYRYGIDVWGQGSTVIVTA VL: EIVLTQSPATLSLSPGERATLSCRASQGLNFVVWYQQKRGQAPRLLIHAPSGRAPGVPDRFSARGSGTEFSLVISSVEPDDFAIYYCQEYSSTPYNFGPGTRVDRKR has koff at least equal to 0.0003 s⁻¹.
Response: yes (1)

Prompt: Would you say 12A21 (antibody, V domains shown, also called 12A21HC; 12a21kc) VH: SQHLVQSGTQVKKPGASVRVSCQASGYTFTNYILHWWRQAPGQGLEWMGLIKPVFGAVNYARQFQGRIQLTRDIYREIAFLDLSGLRSDDTAVYYCARDESGDDLKWHLHPWGQGTQVIVSP VL: DIQMTQSPSSLSASVGDRVTINCQAGQGIGSSLNWYQKKPGRAPKLLVHGASNLQRGVPSRFSGSGFHTTFTLTISSLQPDDVATYFCAVFQWFGPGTKVDIKR shows koff at minimum 0.0003 s⁻¹?
Response: yes (1)
